Tested on: rodent lifetime carcinogenesis bioassay, tumor incidence TD50
Assay: carcinogenic potency in animals, long-term in vivo studies, CPDB compilation (AID 1745844)
Conditions: rat; strain Fischer 344; females; by gavage; site: liver; lesion: hepatocellular carcinoma; dosed 25 weeks; study length 124 weeks
READOUT: TD50

(Q) Query TD50 for Brc1cc(Br)c(-c2cc(Br)c(Br)cc2Br)cc1Br
(A) 1.65 mg/kg/day

====

System: rodent lifetime carcinogenesis bioassay, tumor incidence TD50
Experiment: carcinogenic potency in animals, long-term in vivo studies, CPDB compilation (AID 1745844)
Settings: rat; strain Fischer 344; males; in drinking water; site: liver; lesion: hepatocellular adenoma; dosed 104 weeks; study length 104 weeks
The source made the active and inactive calls. How the calls were made is not given here.
READOUT: TD50

(Q) Note down TD50 recorded for CN(C)N
(A) 205 mg/kg/day (inactive)

====

System: rodent lifetime carcinogenesis bioassay, tumor incidence TD50
Assay: carcinogenic potency in animals, long-term in vivo studies, CPDB compilation (AID 1745844)
Details: rat; strain Colworth (Wistar derived); males; in drinking water; site: liver; lesion: hepatocellular carcinoma; dosed 176 weeks; study length 176 weeks
READOUT: TD50

(Q) Return TD50 for the following compound: CN(C)N=O
(A) 0.218 mg/kg/day

====

System: rodent lifetime carcinogenesis bioassay, tumor incidence TD50
Assay: carcinogenic potency in animals, long-term in vivo studies, CPDB compilation (AID 1745844)
Details: rat; strain Fischer 344; males; in feed; site: forestomach; lesion: squamous-cell carcinoma; dosed 104 weeks; study length 104 weeks
READOUT: TD50

(Q) Report TD50, nothing else, for this compound: O=[N+]([O-])c1cccc2cccnc12
(A) 24.9 mg/kg/day

====

Test system: rodent lifetime carcinogenesis bioassay, tumor incidence TD50
Experiment: carcinogenic potency in animals, long-term in vivo studies, CPDB compilation (AID 1745844)
Conditions: rat; strain Fischer 344; females; inhaled; site: nasal cavity; lesion: papillary adenoma; dosed 103 weeks; study length 105 weeks
READOUT: TD50 (mg/kg/day)
Numeric answer only, unit mg/kg/day assumed.

(Q) Output measured TD50 for this item: CCC1CO1 (stereo unspecified)
(A) 1730

====

Tested on: rodent lifetime carcinogenesis bioassay, tumor incidence TD50
Assay: carcinogenic potency in animals, long-term in vivo studies, CPDB compilation (AID 1745844)
Conditions: rat; strain Sprague-Dawley; males; inhaled; site: any site (literature study); lesion: several types; types named in the paper; dosed 25 weeks; study length 139 weeks
READOUT: TD50 (mg/kg/day)
The reply should contain only the number, in mg/kg/day.

(Q) Determine reported TD50 for C=CCl ; test system: rodent lifetime carcinogenesis bioassay, tumor incidence TD50.
(A) 284

====

Test system: rodent lifetime carcinogenesis bioassay, tumor incidence TD50
Test: carcinogenic potency in animals, long-term in vivo studies, CPDB compilation (AID 1745844)
Settings: rat; strain Donryu; females; in drinking water; site: uterus; lesion: several types; types named in the paper; dosed 75 weeks; study length 75 weeks
READOUT: TD50 (mg/kg/day)
API: value field is a number in mg/kg/day; no unit string.

(Q) Fill in reported TD50 for this entry: CCCCNC(=O)N(CCCC)N=O
(A) 15.3

====

System: rodent lifetime carcinogenesis bioassay, tumor incidence TD50
Test: carcinogenic potency in animals, long-term in vivo studies, CPDB compilation (AID 1745844)
Conditions: rat; strain Fischer 344; males; in feed; site: ear canal; lesion: ceruminous carcinoma; dosed 74 weeks; study length 101 weeks
READOUT: TD50

(Q) Return TD50 (reported value) for this molecule: O=[N+]([O-])c1ccc2c3c(cccc13)CC2
(A) 8.92 mg/kg/day

====

Test system: rodent lifetime carcinogenesis bioassay, tumor incidence TD50
Experiment: carcinogenic potency in animals, long-term in vivo studies, CPDB compilation (AID 1745844)
Settings: mouse; strain Swiss albino; females; in drinking water; site: lung; lesion: adenocarcinoma; dosed 121 weeks; study length 121 weeks
READOUT: TD50

(Q) Answer with reported TD50 of NNc1ccc(C(=O)O)cc1
(A) 11200 mg/kg/day

====

System: rodent lifetime carcinogenesis bioassay, tumor incidence TD50
Assay: carcinogenic potency in animals, long-term in vivo studies, CPDB compilation (AID 1745844)
Settings: rat; strain Sprague-Dawley; females; by gavage; site: any site (literature study); lesion: malignant tumor; dosed 78 weeks; study length 104 weeks
Calls of active or inactive are those of the source. The rule behind the calls is not given here.
READOUT: TD50

(Q) Quote TD50 reported for C[C@]12C=CC(=O)C=C1CC[C@@H]1[C@@H]2[C@@H](O)C[C@@]2(C)[C@H]1CC[C@]2(O)C(=O)COC(=O)CCCc1ccc(N(CCCl)CCCl)cc1 please.
(A) 21.6 mg/kg/day (inactive)

====

System: rodent lifetime carcinogenesis bioassay, tumor incidence TD50
Test: carcinogenic potency in animals, long-term in vivo studies, CPDB compilation (AID 1745844)
Conditions: mouse; strain B6AKF1; males; oral dosing; site: lung; lesion: several types; types named in the paper; dosed 81 weeks; study length 81 weeks
READOUT: TD50 (mg/kg/day)
// note: answer is a bare numeric in mg/kg/day

(Q) Consider the compound CCCc1ccc2c(c1)OCO2 tested on rodent lifetime carcinogenesis bioassay, tumor incidence TD50; state its TD50.
(A) 448

====

Test system: rodent lifetime carcinogenesis bioassay, tumor incidence TD50
Test: carcinogenic potency in animals, long-term in vivo studies, CPDB compilation (AID 1745844)
Settings: mouse; strain B6C3F1; females; by gavage; site: thyroid gland; lesion: follicular-cell adenoma + follicular-cell carcinoma; dosed 103 weeks; study length 104 weeks
READOUT: TD50

(Q) Look up TD50 of CCCC(Cl)CCCC(Cl)CCC(Cl)CCC(Cl)CCC(Cl)CCCC(Cl)CCC (stereo unspecified) and report it.
(A) 307 mg/kg/day

====

System: rodent lifetime carcinogenesis bioassay, tumor incidence TD50
Assay: carcinogenic potency in animals, long-term in vivo studies, CPDB compilation (AID 1745844)
Details: mouse; strain CDF1; females; in feed; site: liver; lesion: hepatocellular carcinoma; dosed 84 weeks; study length 84 weeks
READOUT: TD50
Returns: string containing the number followed by the unit.

(Q) Under rodent lifetime carcinogenesis bioassay, tumor incidence TD50, report TD50 for Cc1cnc2ccc3c(nc(N)n3C)c2n1
(A) 27.8 mg/kg/day

(Q) Supply TD50 measured with rodent lifetime carcinogenesis bioassay, tumor incidence TD50 for Cc1cc2c(nc1N)[nH]c1ccccc12 .
(A) 98.9 mg/kg/day

====

System: rodent lifetime carcinogenesis bioassay, tumor incidence TD50
Test: carcinogenic potency in animals, long-term in vivo studies, CPDB compilation (AID 1745844)
Details: rat; strain Fischer 344; females; in feed; site: urinary bladder; lesion: leiomyosarcoma; dosed 103 weeks; study length 104 weeks
READOUT: TD50

(Q) For Nc1ccc(N)c2c1C(=O)c1c(N)ccc(N)c1C2=O , write its TD50.
(A) 294 mg/kg/day

====

Test system: rodent lifetime carcinogenesis bioassay, tumor incidence TD50
Assay: carcinogenic potency in animals, long-term in vivo studies, CPDB compilation (AID 1745844)
Details: mouse; strain B6C3F1; females; in feed; site: cervix uteri; lesion: leiomyosarcoma; dosed 64 weeks; study length 64 weeks
Calls of active or inactive are those of the source. The rule behind the calls is not given here.
READOUT: TD50

(Q) For the compound O=C1CN(N=Cc2ccc([N+](=O)[O-])o2)C(=O)N1 , give its reported TD50.
(A) 4000 mg/kg/day (inactive)

====

System: rodent lifetime carcinogenesis bioassay, tumor incidence TD50
Experiment: carcinogenic potency in animals, long-term in vivo studies, CPDB compilation (AID 1745844)
Conditions: rat; strain Fischer 344; females; in drinking water; site: mammary gland; lesion: adenocarcinoma + fibroadenoma; dosed 60 weeks; study length 60 weeks
READOUT: TD50 (mg/kg/day)
Field format: number, assumed mg/kg/day, no unit text.

(Q) Using the record for Cc1cc(-c2ccc(N)c(C)c2)ccc1N , state its measured TD50.
(A) 5.77

====

Test system: rodent lifetime carcinogenesis bioassay, tumor incidence TD50
Assay: carcinogenic potency in animals, long-term in vivo studies, CPDB compilation (AID 1745844)
Settings: mouse; strain BDF1; females; in drinking water; site: liver; lesion: hepatocellular adenoma; dosed 104 weeks; study length 105 weeks
READOUT: TD50

(Q) Please look at C1COCCO1 and tell me its recorded TD50 on rodent lifetime carcinogenesis bioassay, tumor incidence TD50.
(A) 83.1 mg/kg/day

====

Test system: rodent lifetime carcinogenesis bioassay, tumor incidence TD50
Assay: carcinogenic potency in animals, long-term in vivo studies, CPDB compilation (AID 1745844)
Conditions: rat; strain Wistar; females; in feed; site: urinary bladder; lesion: several types; types named in the paper; dosed 75 weeks; study length 75 weeks
READOUT: TD50

(Q) Return TD50 for the following compound: COc1cc2c(cc1N)oc1ccccc12
(A) 43.9 mg/kg/day

====

Tested on: rodent lifetime carcinogenesis bioassay, tumor incidence TD50
Assay: carcinogenic potency in animals, long-term in vivo studies, CPDB compilation (AID 1745844)
Settings: mouse; strain CD-1 HaM/ICR; males; in feed; site: any site (literature study); lesion: several types; types named in the paper; dosed 55 weeks; study length 60 weeks
READOUT: TD50 (mg/kg/day)
Numbers only; they are read as mg/kg/day.

(Q) Answer with reported TD50 of Cc1cc(Cl)ccc1N
(A) 7.72

Cited source: PubChem BioAssay AID1745844
